tested-system: UniProt P0DMM9
test-summary: Sulfonation activities of flavonoids in expressed human SULT1A3
Format: in vitro ADME
assay-context: expressed SULT1A3, substrate concentration 2.5 µM, pH 7.4, 37°C, n=3
# label = TRUE if sulfonation rate < 3 nmol/hr/mg protein else FALSE

compound	class-name
O=c1c(O)c(-c2ccccc2)oc2cc(O)cc(O)c12 [3,5,7THF, 3,5,7-Trihydroxyflavone]	FALSE
O=c1c(O)c(-c2ccc(O)cc2)oc2ccccc12 [3,4’DHF, 3,4'-Dihydroxyflavone]	TRUE
O=c1c(O)c(-c2ccccc2)oc2cc(O)ccc12 [3,7DHF, 3,7-Dihydroxyflavone]	FALSE
O=c1cc(-c2ccc(O)cc2)oc2ccccc12 [4’HF, 4'-Hydroxyflavone]	TRUE
O=c1cc(-c2ccccc2)oc2cc(O)ccc12 [7HF, 7-Hydroxyflavone]	FALSE
O=c1c(O)c(-c2ccccc2)oc2ccccc12 [3HF, 3-Hydroxyflavone]	TRUE
O=c1cc(-c2ccc(O)cc2)oc2cc(O)cc(O)c12 [apigenin, 5,7,4'-Trihydroxyflavone]	FALSE
O=c1c(O)c(-c2ccc(O)cc2)oc2cc(O)cc(O)c12 [kaempferol, 3,5,7,4’tetrahydroxyflavone]	FALSE
O=c1c(O)c(-c2ccc(O)cc2)oc2cc(O)ccc12 [3,7,4'THF, 3,7,4'-Trihydroxyflavone]	FALSE
O=C(CCc1ccc(O)cc1)c1c(O)cc(O)cc1O	TRUE
O=c1cc(-c2ccccc2)oc2cccc(O)c12 [5HF, 5-Hydroxyflavone]	TRUE
O=C1C[C@@H](c2ccc(O)cc2)Oc2cc(O)cc(O)c21	FALSE
O=c1c(-c2ccc(O)cc2)coc2cc(O)cc(O)c12	TRUE
O=c1cc(-c2ccc(O)cc2)oc2cc(O)ccc12 [7,4’DHF, 7,4'-Dihydroxyflavone]	FALSE
O=c1cc(-c2ccccc2)oc2cc(O)cc(O)c12 [5,7DHF, 5,7-Dihydroxyflavone]	FALSE

----------
tested-system: SULT1A3 (Homo sapiens)
Sequence (P0DMM9 whole entry): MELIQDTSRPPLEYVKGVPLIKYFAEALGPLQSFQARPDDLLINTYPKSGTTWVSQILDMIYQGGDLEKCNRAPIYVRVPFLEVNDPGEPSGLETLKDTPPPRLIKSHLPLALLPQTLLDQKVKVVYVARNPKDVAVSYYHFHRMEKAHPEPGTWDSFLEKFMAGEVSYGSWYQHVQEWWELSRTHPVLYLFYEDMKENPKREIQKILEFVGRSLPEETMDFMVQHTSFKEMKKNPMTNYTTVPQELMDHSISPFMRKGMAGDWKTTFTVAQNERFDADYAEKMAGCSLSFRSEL
test-summary: Kinetics of flavonoid sulfonation by SULT1A3
assay-context: human
value-kind: microsomal CLint (µL/min/mg)

compound	endpoint-result
O=c1cc(-c2ccccc2)oc2cc(O)ccc12 [7HF, 7-Hydroxyflavone]	30400
